Each entry below carries its reported RP-LC retention time.
test: gradient 5% acetonitrile 3 min, to 50% in 2 min, to 85% in 15 min, held 3 min, 100 µL/min; conditions: column: Zorbax Extend-C18 2.1 x 50 mm; eluents: water / acetonitrile, 0.1% formic acid

Look over these answered cases.
{"compound": "O=C(Cn1c(=O)c2cccn2c2ccccc21)NCCCc1ccccc1", "RP-LC retention time": "874 s"}
{"compound": "CCCC(NC(=O)Cc1ccc(C)cc1)C(=O)Nc1nc2ccccc2[nH]1 (stereo not given)", "RP-LC retention time": "722 s"}
{"compound": "Clc1ccc(Cc2nnc3ccc(Cl)nn23)cc1", "RP-LC retention time": "823 s"}
{"compound": "CC(C)n1cnc(S(=O)(=O)N2CCCC(C(=O)Nc3ccc(F)c(Cl)c3)C2)c1 (stereo not given)", "RP-LC retention time": "848 s"}
{"compound": "Cc1cnc(CC2CCN(C(=O)Nc3ccc4c(c3)OCCO4)C2)n1C1CC1 (stereo not given)", "RP-LC retention time": "612 s"}

Name the recorded RP-LC retention time of the item `COc1cc(NS(=O)(=O)c2ccc(Nc3nc(-c4ccc(C)c(C)c4)cs3)cc2)nc(OC)n1` in your answer. 1190 s

Report measured RP-LC retention time; entry is `COc1ccc(NS(=O)(=O)c2[nH]ncc2C(=O)NCc2ccc(SC)cc2)cc1` 807 s

Assign RP-LC retention time to the following record: `C#CC1(N2CCCCC2)CCCCC1` 638 s

In one line, give reported RP-LC retention time of the entry `Cc1cc(C)cc(NC(=O)Cn2c(C)nc3c(sc4nc(-c5ccccc5)ccc43)c2=O)c1` . 1050 s

# return recorded RP-LC retention time for entry CC(C)c1noc(C2CCCN(S(=O)(=O)c3cccs3)CCC(=O)NCC2)n1 (stereo not given) 787 s

Consider the compound COCC(=O)N1CCCCC1c1nncn1Cc1ccccc1 (stereo not given) and give its recorded RP-LC retention time. 612 s

Complete the entry with RP-LC retention time for `COC(=O)C1=CN(c2cc(OC)cc(OC)c2)c2ccc(F)cc2S1(=O)=O` 908 s

Name the recorded RP-LC retention time of the compound listed here: `CCC(=O)Nc1ccc(CCc2nc3ccc(C(=O)NCCOC)cc3[nH]2)cc1` 567 s

Determine its reported RP-LC retention time: `Cc1ccc(-c2csc(NC(=O)c3ccc(Br)cc3)n2)c(C)c1` 1270 s

State its RP-LC retention time: `COc1ccc2nc(C(=O)NCc3ccc(F)cc3Cl)cn2n1` 872 s

Using known records, supply RP-LC retention time for CCN1C(=O)c2cc(C(=O)N3CCN(c4ncccn4)CC3)nn2CC1(C)C(=O)NC1CCCC1 (stereo not given) 691 s

Please list RP-LC retention time recorded for the compound `O=C(CSc1nnnn1-c1ccccc1)Nc1ncc(Cc2ccccc2Cl)s1` 946 s

Consider the compound `O=C(CSCc1ccccc1)NCC1CCN(C(=O)Nc2ccc(F)cc2)CC1` and give its recorded RP-LC retention time. 770 s

For the compound `O=C(NCc1nc2ccccc2c(=O)n1-c1ccc(F)cc1)Nc1ccc(Cl)c(C(F)(F)F)c1` , give its measured RP-LC retention time value. 1040 s

Indicate its recorded RP-LC retention time; the compound in question is COc1ccc2c(c1)C1(CCN(C(=O)c3ccc(Cl)cc3)C1)C(=O)N2C (stereo not given) 832 s
